Kindly find below Ki information for Hepatocyte growth factor receptor (Homo sapiens, UniProt P08581) taken from the literature.

compound	Ki
Cc1cnc2c(-c3cc(NC4CC5CCC4C5)ncn3)c(N)nn2c1 (centres unmarked)	< 0.5 µM
Nc1ncc(-c2cnn(C3CCNCC3)c2)cc1-c1nnnn1-c1cc(F)ccc1F	0.1 to 1 µM
CC(C)Oc1ccc(-c2cnc(N)c(-c3nnnn3-c3cccc(F)c3F)c2)cc1	0.1 to 1 µM
CC1CN(Cc2ccc(-c3cnc(N)c(-c4nnnn4-c4cccc(Cl)c4Cl)c3)cc2)CCN1 (centres unmarked)	≤ 0.1 µM
[O-][n+]1cccc2c(-c3oncc3-c3cccc(F)c3F)c[nH]c21	1 to 12.5 µM
C[C@@H](NC(=O)c1nc(-c2ccc(N3CCNCC3)cc2)cnc1N)c1nnc2ccc(Nc3cccc(Cl)c3)nn12	≤ 0.25 µM
Fc1ccc(-c2cnoc2-c2c[nH]c3ncccc23)c(F)c1F	< 0.2 µM
Nc1ncc(-c2ccc(CN3CCCC(CO)C3)cc2)cc1-c1nnnn1-c1cccc(Cl)c1Cl (centres unmarked)	≤ 0.1 µM
C[C@H](c1ccc2ncccc2c1)c1nnc2sc(-c3cn(C)nc3C3CC3)nn12	0.024 µM
CN1CCN(c2ccc(-c3cnc(N)c(-c4nc5cc(F)ccc5n4-c4cccc(Cl)c4F)c3)cc2)CC1	0.1 to 1 µM
Nc1ncc(C2=CCN(C(=O)O[C@H]3CCOC3)CC2)cc1-c1nnnn1-c1cccc(F)c1F	≤ 0.1 µM
Nc1ncc(-c2cnn([C@@H]3CCCNC3)c2)cc1-c1nnnn1-c1cccc(Cl)c1Cl	≤ 0.1 µM
Nc1ncc(-c2cnn(C3CCNCC3)c2)cc1-c1nnnn1-c1c(F)ccc(F)c1Cl	≤ 0.1 µM
Nc1nn2cc(-c3cccnc3N3CCCC(CO)C3)cnc2c1-c1ccccn1 (centres unmarked)	0.5 to 5 µM
Nc1ncc(-c2csc(C3CCNCC3)c2)nc1-c1nnnn1-c1cccc(F)c1F	0.1 to 1 µM
Nc1ncc(-c2cnn(CCO)c2)cc1-c1nc2cnccc2n1-c1cccc(F)c1F	≤ 0.1 µM
COc1c(F)cccc1-n1nnnc1-c1cc(-c2ccc(NC(C)=O)cc2)cnc1N	0.1 to 1 µM

----------
# Ki against Hepatocyte growth factor receptor (Homo sapiens), merged from multiple literature sources

compound	Ki
Nc1ncc(-c2cccnc2)nc1-c1nncn1-c1cc(Cl)ccc1F	100 to 1000 nM
Nc1ncc(C2=CCN(C(=O)C3CCOC3)CC2)cc1-c1nnnn1-c1cccc(F)c1F (centres unmarked)	≤ 100 nM
CCOC(=O)c1c(N)nn2cc(-c3ccncn3)cnc12	500 to 5000 nM
CC(C)(O)Cn1cc(-c2cnc(N)c(-c3nnnn3-c3cccc(F)c3F)c2)cn1	≤ 100 nM
Nc1ncc(-c2cnn([C@@H]3CCNC3)c2)cc1-c1nnnn1-c1cccc(F)c1F	≤ 100 nM
C[C@@H](NC(=O)c1nc(-c2ccc(CN)cc2)cnc1N)c1nnc2ccc(Nc3cccc(Cl)c3)nn12	≤ 250 nM
Cn1ccc2c(-c3oncc3-c3cccc(F)c3F)c[nH]c2c1=O	200 to 1000 nM
O=c1ccc(-c2cnc3[nH]cc(-c4oncc4-c4cccc(F)c4F)c3c2)c[nH]1	< 200 nM
CC(=O)N1CCC(c2cnc3[nH]cc(-c4oncc4-c4cccc(F)c4F)c3c2)CC1	< 200 nM
COC(=O)C1CCCN1C(=O)c1ccc(-c2cnc3c(-c4ccccn4)c(N)nn3c2)nc1 (centres unmarked)	< 500 nM
Nc1ncc(-c2ccc(CN3CCCC3)cc2)cc1-c1nccn1-c1cccc(Cl)c1Cl	≤ 100 nM
CSc1ccccc1-c1cnc(N)c(-c2nnnn2-c2cccc(F)c2F)c1	100 to 1000 nM
Cc1cnc2c(-c3cc(N[C@@H](C)c4ccccc4)ncn3)c(N)nn2c1	500 to 5000 nM
COc1cc(-c2cnc(N)c(-c3nnnn3-c3cccc(F)c3F)c2)cc(OC)c1OC	100 to 1000 nM
CN(C)C(=O)c1ccc(-c2cnc3[nH]cc(-c4oncc4-c4cccc(F)c4F)c3c2)nc1	< 200 nM
Nc1ncc(-c2cccc(F)c2)cc1-c1nnnn1-c1cccc(F)c1F	≤ 100 nM
CC(C)(C)C(=O)Nc1ccc(-c2cnc(N)c(-c3nnnn3-c3cccc(F)c3F)c2)cc1	100 to 1000 nM
Nc1ncc(C2=CCN(C(=O)CC3CCOCC3)CC2)cc1-c1nnnn1-c1cccc(F)c1F	≤ 100 nM
CC(=O)N1CCC[C@@H]1C(=O)N1CC=C(c2cnc(N)c(-c3nnnn3-c3cccc(F)c3F)c2)CC1	100 to 1000 nM
Cc1ccc(-c2cnc(N)c(-c3nnnn3-c3cccc(F)c3F)c2)cc1	100 to 1000 nM
CS(=O)(=O)c1ccc(-c2cnc(N)c(-c3nncn3-c3cccc(F)c3F)n2)cc1	≤ 100 nM
CN(C)Cc1cnc2[nH]cc(-c3oncc3-c3cccc(F)c3F)c2c1	1000 to 12500 nM
C[C@H](c1ccc(-c2cnc(N)c(-c3nnnn3-c3cccc(F)c3F)c2)cc1)N(C)C	≤ 100 nM
COc1cccc(OC)c1-c1cnc2c(-c3ccccn3)c(N)nn2c1	500 to 5000 nM
Nc1nn2cc(-c3ccccc3C=O)cnc2c1-c1ccccn1	500 to 5000 nM
CC(=O)Nc1ccc(-c2cnc(N)c(-c3nnnn3-c3cc(F)cc(F)c3Cl)c2)cc1	100 to 1000 nM
Fc1cccc(-n2cnnc2-c2c[nH]c3ncc(-c4ccc(N5CCOCC5)nc4)cc23)c1F	< 200 nM
Nc1ncc(-c2ccc(CN3CCCC3)cc2)cc1-c1nnnn1-c1cccc(Cl)c1F	≤ 100 nM
Cc1cnc2c(-c3cc(NC4CCC4)ncn3)c(N)nn2c1	< 500 nM
CNc1cc(-c2c(N)nn3cc(-c4ccncc4)cnc23)ncn1	< 500 nM
Nc1ncc(-c2cc(F)ccc2O)cc1-c1nnnn1-c1cccc(F)c1F	≤ 100 nM
CC(=O)N1CCc2cc(-c3cnc(N)c(-c4nnnn4-c4cccc(F)c4F)c3)ccc21	≤ 100 nM
Nc1nn2cc(-c3cccc(CO)c3)cnc2c1-c1ccccn1	< 500 nM
CC(=O)Nc1cccc(-c2cnc(N)c(-n3nnnc3-c3cccc(F)c3F)c2)c1	100 to 1000 nM
Nc1nn2cc(-c3ccncn3)cnc2c1C(=O)N1CCCC1	500 to 5000 nM

----------
Collected set of Ki measured with Hepatocyte growth factor receptor (Homo sapiens) across studies.

compound	Ki
Nc1ncc(-c2cnn([C@H]3CCCNC3)c2)cc1-c1nnnn1-c1cccc(Cl)c1Cl	≤ 0.1 µM
NC(=O)c1ccc(-c2cnc3[nH]cc(-c4oncc4-c4cccc(F)c4F)c3c2)cc1	< 0.2 µM
Nc1nn2cc(-c3ccc(CNC4CCNCC4)cc3)cnc2c1-c1ccccn1	< 0.5 µM
COC(=O)C1CCCN1C(=O)c1cccc(-c2cnc3c(-c4ccccn4)c(N)nn3c2)n1 (stereo not shown)	< 0.5 µM

----------
Listing of Ki toward Hepatocyte growth factor receptor (Homo sapiens), each taken from a published source.

chemical structure	Ki
CN(C)Cc1ccc(-c2cnc(N)c(-c3nnnn3-c3cc(Cl)ccc3F)c2)cc1	100 to 1000 nM
CC(=O)N(C)c1ccc(-c2cnc(N)c(-c3nnnn3-c3cccc(F)c3F)c2)cc1	≤ 100 nM
NC(=O)Nc1ccc(-c2cnc(N)c(-c3nnnn3-c3cccc(F)c3F)c2)cc1	≤ 100 nM
Cc1cnc2c(-c3cc(NC4CCN(C)CC4)ncn3)c(N)nn2c1	< 500 nM
Nc1ncc(-c2ccc(N3CC(=O)NC3=O)cc2)cc1-c1nnnn1-c1cccc(F)c1F	≤ 100 nM
CCCN(CCCN)C(=O)c1cccc(-c2cnc3c(-c4ccccn4)c(N)nn3c2)n1	< 500 nM
Nc1ncc(-c2ccncc2)cc1-c1nncn1-c1cccc(Cl)c1Cl	100 to 1000 nM
CCOC(=O)CC(=O)Nc1ccc(-c2cnc(N)c(-c3nnnn3-c3cccc(F)c3F)c2)cc1	100 to 1000 nM
Nc1nn2cc(CCCNC3CCC3)cnc2c1-c1ccccn1	< 500 nM
Cc1cc(NC(=O)c2c(C)n(CC(C)(C)O)n(-c3ccccc3)c2=O)ccc1-c1cccc2cnccc12	373 nM
Cc1c(C(=O)Nc2ccc(-c3cccc4c(NCCN(C)C)nccc34)cc2)c(=O)n(-c2ccccc2)n1CC(C)(C)O	> 20000 nM
Nc1ncc(-c2csc(C3CCNCC3)c2)cc1-c1nnnn1-c1cccc(F)c1F	≤ 100 nM
CN(C)c1ccc(CNC(=O)c2c(N)nn3cc(-c4ccncn4)cnc23)cc1	500 to 5000 nM
CC(C)CN(C)CCCc1cnc2c(-c3ccccn3)c(N)nn2c1	500 to 5000 nM
COc1ccc(-c2cnc(N)c(-c3nnnn3-c3cccc(F)c3F)c2)cc1	≤ 100 nM
Fc1cccc(-c2cnoc2-c2c[nH]c3ncc(Cl)cc23)c1F	< 200 nM
COCCn1cc(-c2cnc(N)c(-c3nnnn3-c3cccc(F)c3F)c2)cn1	≤ 100 nM
CN1CCN(c2ccc(-c3cnc(N)c(-c4nnsc4-c4cccc(Cl)c4Cl)c3)cc2)CC1	≤ 100 nM
Nc1nn2cc(-c3cccnc3N3CC[C@H](CN4CCCC4)C3)cnc2c1-c1ccccn1	500 to 5000 nM
Cc1cnc2c(-c3cc(N[C@H](C)c4ccccc4)ncn3)c(N)nn2c1	< 500 nM
O=c1[nH]ccc2c(-c3oncc3-c3cccc(F)c3F)c[nH]c12	1000 to 12500 nM
Nc1ncc(-c2cn[nH]c2)cc1-c1nncn1-c1cccc(Cl)c1F	100 to 1000 nM
CC[C@H](CO)Nc1cc(-c2c(N)nn3cc(C)cnc23)ncn1	< 500 nM
CN1CCN(c2ccc(-c3cnc4[nH]cc(-c5oncc5-c5cccc(F)c5F)c4c3)cn2)CC1	< 200 nM
Cc1c(C(=O)Nc2ccc(-c3cccc4c(N(C)CCN(C)C)nccc34)cc2)c(=O)n(-c2ccccc2)n1CC(C)(C)O	> 6670 nM
CC(=O)Nc1ccc(-c2cnc(N)c(-c3nnnn3-c3cccc(F)c3F)c2)cc1F	≤ 100 nM
Cc1noc(-c2c[nH]c3ncccc23)c1-c1cccc(F)c1F	200 to 1000 nM
CN(C)Cc1ccc(-c2cnc(N)c(-c3nnnn3-c3c(F)ccc(Cl)c3F)c2)cc1	≤ 100 nM
Nc1ncc(-c2ccc3c(c2)OCCO3)cc1-c1nnnn1-c1cccc(F)c1F	≤ 100 nM
Nc1ncc(-c2ccc(-n3ccnc3)nc2)cc1-c1nnnn1-c1cccc(F)c1F	≤ 100 nM
Nc1ncc(-c2cnn(C3CCNCC3)c2)cc1-c1nnnn1-c1cc(F)ccc1Cl	100 to 1000 nM
CCN(CC)CCN(C)C(=O)c1cccc(-c2cnc3c(-c4ccccn4)c(N)nn3c2)n1	< 500 nM
N#Cc1ccc(-c2cnc(N)c(-c3nncn3-c3cccc(F)c3F)c2)cc1	100 to 1000 nM
Cn1cnc(-c2cnc(N)c(-c3nnnn3-c3cccc(F)c3F)c2)c1	100 to 1000 nM
